The reported numbers originate from patent US20140023611A1.

experimental target: human NaP2b (SLC34A2) (Homo sapiens, UniProt O95436)
Construct: host or cells: HEK293
Sequence (O95436 whole entry): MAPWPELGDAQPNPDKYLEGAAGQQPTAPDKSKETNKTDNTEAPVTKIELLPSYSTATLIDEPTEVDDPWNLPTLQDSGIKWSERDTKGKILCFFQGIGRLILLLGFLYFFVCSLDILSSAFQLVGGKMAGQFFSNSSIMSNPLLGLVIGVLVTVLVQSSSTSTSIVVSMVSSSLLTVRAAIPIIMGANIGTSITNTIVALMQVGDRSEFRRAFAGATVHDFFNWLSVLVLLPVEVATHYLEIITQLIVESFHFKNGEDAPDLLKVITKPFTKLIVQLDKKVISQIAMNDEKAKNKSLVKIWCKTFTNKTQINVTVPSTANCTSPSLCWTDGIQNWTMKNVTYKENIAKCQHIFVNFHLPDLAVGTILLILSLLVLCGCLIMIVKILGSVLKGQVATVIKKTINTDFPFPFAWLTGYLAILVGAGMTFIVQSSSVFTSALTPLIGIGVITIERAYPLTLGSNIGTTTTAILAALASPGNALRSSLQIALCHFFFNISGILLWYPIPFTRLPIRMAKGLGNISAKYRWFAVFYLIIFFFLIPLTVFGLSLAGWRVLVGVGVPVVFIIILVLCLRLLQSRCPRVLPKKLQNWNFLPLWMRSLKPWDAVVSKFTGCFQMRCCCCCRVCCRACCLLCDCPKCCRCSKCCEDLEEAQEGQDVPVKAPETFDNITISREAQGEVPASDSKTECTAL
test: Inhibition of NaP2b-mediated Pi (33P) uptake in transfected HEK293 cells, human NaP2b
Assay type: cell-based
assay context: read-out: pIC50 range for human NaP2b (converted)

{"columns": ["compound", "IC50"],
 "data": [
  ["CCN(CC)c1ccc(NC(=O)c2cccc(CCCOCCOCCOCCOCCC(=O)N(CCO)CCO)c2)c(-c2cc(C(=O)N[C@H]3CCCc4ccccc43)ccn2)c1", "1000 to 7940 nM"],
  ["O=C(O)CCOCCOCCOCCOCCSCc1cccc(C(=O)Nc2ccc(N3CCCCC3)cc2-c2cc(C(=O)N[C@H]3CCCc4ccccc43)ccn2)c1", "1000 to 7940 nM"],
  ["CN(CCO)C(=O)c1cccc(C(=O)Nc2ccc(N3CCCCC3)cc2-c2cc(C(=O)NC3CCCc4ccccc43)ccn2)c1 (stereo in doubt)", "< 1000 nM"],
  ["CCN(CC)c1ccc(NC(=O)c2cccc(C(=O)N(C)CCN(C)CCOCCOCCOCCNC(=O)NCCN3CCOCC3)c2)c(-c2cc(C(=O)N[C@H]3CCCc4ccccc43)ccn2)c1", "> 31600 nM"],
  ["O=C(O)CCSCc1cccc(C(=O)Nc2ccc(N3CCCCC3)cc2-c2cc(Nc3cccc(C(F)(F)F)c3)ncn2)c1", "10000 to 31600 nM"],
  ["CN(CCOCCOCCOCCC(=O)N1CCN(CCOCCO)CC1)C(=O)Cc1cccc(SCc2cccc(C(=O)Nc3ccc(N4CCCCC4)cc3-c3cc(C(=O)N[C@H]4CCCc5ccccc54)ccn3)c2)c1", "< 1000 nM"],
  ["CCN(CC)c1ccc(NC(=O)c2cccc(COCCOCCOCCOCCOCCOCCN(C)CCN3CCOCC3)c2)c(-c2cc(C(=O)NCc3cccc(C(F)(F)F)c3)ccn2)c1", "1000 to 7940 nM"],
  ["CCN(CC)c1ccc(NC(=O)c2cccc(C(=O)N(C)CCN3CCC[C@H]3C(=O)NCCOCCOCCOCCOCCOCCOCCOCCOC)c2)c(-c2cc(C(=O)N[C@H]3CCCc4ccccc43)ccn2)c1", "1000 to 7940 nM"],
  ["CCN(CC)c1ccc(NC(=O)c2cccc(C(=O)N(C)CCN(CCOC)CCOCCOCCOCCC(=O)NC(C)(C)C)c2)c(-c2cc(C(=O)NCc3cccc(C(F)(F)F)c3)ccn2)c1", "1000 to 7940 nM"],
  ["CCN(CC)c1ccc(NC(=O)c2cccc(COCCOCCOCCOCCOCCOCCOC(=O)NCCN3CCOCC3)c2)c(-c2cc(C(=O)NCc3cccc(C(F)(F)F)c3)ccn2)c1", "< 1000 nM"],
  ["CCN(CC)c1ccc(NC(=O)c2cccc(COCCOCCOCCOCCOC(=O)NCCOCCOCCOCCOCCOCCOCCOC)c2)c(-c2cc(C(=O)NCc3cccc(C(F)(F)F)c3)ccn2)c1", "1000 to 7940 nM"],
  ["CCN(CC)c1ccc(NC(=O)c2cccc(CCCOCCOCCOCCOCCNC(=O)N(C)CCOCCOCCOCCOCCOCCOCCOC)c2)c(-c2cc(C(=O)NCc3cccc(C(F)(F)F)c3)ccn2)c1", "1000 to 7940 nM"],
  ["CCN(CC)c1ccc(NC(=O)c2cccc(CCCOCCOCCOCCOCCOCCC(=O)O)c2)c(-c2cc(C(=O)N[C@H]3CCCc4ccccc43)ccn2)c1", "< 1000 nM"],
  ["O=C(CCSCc1cccc(C(=O)Nc2ccc(N3CCCCC3)cc2-c2cc(C(=O)NCc3cccc(C(F)(F)F)c3)ccn2)c1)NCCOCCOCCOCCOCCOCCOCCOCCO", "1000 to 7940 nM"]
]}
